Assay notes: antimalarial activity against Dd2 strain (AID 2302);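 further: 0% = DMSO untreated growth and 100% = chloroquine plus artemisinin killed control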
Details: P. falciparum Dd2 in RBCs, LDH growth readout, 72 h; at 2 µM
The source made the active and inactive calls.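 How the source made its calls: active means growth inhibition above 50% at the single 2 µM test dose, taken to imply half-maximal potency below 2 µM; inactive means the rest.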
Answer with one of the outcomes active, inactive

For orientation, consider the following solved cases.
Compound	Class label
O=C(Nc1cccc(C(F)(F)F)c1)Nc1ccc(Cl)c(C(F)(F)F)c1	active
COc1cc2nc(NCCCO)nc(Nc3ccc(Oc4ccccc4)cc3)c2cc1OC	active

Kindly consider the entry below.
Outcome? `O=C(NCC1CCN(CCN2CCc3ccc4c(c3C2)OCO4)CC1)c1ccc(-c2ccc(C(F)(F)F)cc2)cc1`
inactive

###

Documented growth inhibition across a set of compounds
Assay notes: antimalarial activity against Dd2 strain (AID 2302);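 further: 0% = DMSO untreated growth and 100% = chloroquine plus artemisinin killed control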
Details: P. falciparum Dd2 in RBCs, LDH growth readout, 72 h; at 2 µM; active compounds read high
Supply the numeric figure in %, leaving out any unit text.

Compound	growth inhibition (%)
O=C(Nc1ccc(-c2ccc(-c3nc4ccccc4[nH]3)s2)cc1)Nc1ccc(Cl)c(Cl)c1	99

Form field: reported growth inhibition of `CN1CCN(c2cc3c(cc2Br)CCN3C(=O)Nc2ccc(-c3cnc4ccccc4c3)cc2)CC1`
79

I have this compound here, O=C(NCCN1CCOCC1)c1csc(C2CCCN(C(=O)c3ccc(O)c(-c4cc(Cl)cc(Cl)c4)c3)C2)n1 (centres undefined) , and I need its recorded growth inhibition.
50

Entry `Nc1nc(N)c2c(ccc3c2ccn3Cc2ccc(OCc3ccccc3)cc2)n1` : reported growth inhibition = ?
1

Field request: growth inhibition | item: `NC(=NCCc1ccc(Cl)c(Cl)c1)c1ccc2ccccc2c1`
29

Using the record for CC(C)c1ccc(S(=O)(=O)N(c2ccc3c(c2)OCO3)C2CCN(Cc3ccccc3)C2)cc1 (centres undefined) , report its growth inhibition.
92

Which growth inhibition is reported for this compound? N#Cc1ccc(CN2CCC(Oc3ccc(NC(=O)c4ccsc4)cc3Cl)C2)cc1 (centres undefined)
79

# get_value(readout='growth inhibition', item= `CCCCCCN(CCCCCC)CCCCNc1c2ccc(Cl)cc2nc2ccc(OC)cc12` )
94

Tell me the measured growth inhibition of CC(CN1CCN(C)CC1)C(=O)Nc1ccc(-c2ccc(-c3nc4ccccc4[nH]3)cc2)cc1 (centres undefined) , please.
87

###

Below, each of the compounds is paired with its reported growth inhibition value.
Assay notes: inhibition of 3D7 malaria parasite growth – strain 3D7 (AID 2306);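 further: 0% = DMSO wells and 100% = chloroquine plus artemisinin control wells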
Details: P. falciparum 3D7 erythrocytic growth, LDH absorbance, 72 h; at 2 µM; active compounds read high
Respond with the bare value in %.

Here are 10 compounds together with their reported answers.
Compound	growth inhibition [%]
O=C(Nc1cccc2ccccc12)N1CCc2cc3nccc(N4CCN5CCC[C@H]5C4)c3cc21	99
NCC(=O)Nc1cccc(Nc2nccc(-c3c(-c4cccc(NC(=O)c5ccccc5)c4)nn4ccccc34)n2)c1	96
OCCN1CCN(Cc2ccc(-c3cccc(-c4nc5ccc(C(F)(F)F)cc5[nH]4)c3)cc2)CC1	99
O=C(C=Cc1ccc(Cl)c(Cl)c1)NCCCCCN1CCCC(CCCNC(=O)/C=C/c2ccccc2)C1 (centres undefined)	98
CN(C)CCOc1cc(NC(=O)Nc2ccc(-c3ccccc3)cc2)ccc1I	101
COc1ccccc1N1CCN(C(C(=O)NCc2ccc3c(c2)OCO3)c2ccc3c(c2)OCCCO3)CC1 (centres undefined)	88
CCCCNC(=O)[C@@H](NC(=O)c1ccc(O)c(-c2ccc(Cl)c(Cl)c2)c1)C(C)C	97
Cc1ccc(NC(=O)NC2CCN(c3ccnc4ccccc34)CC2)cc1	97
O=C(CCc1cnc[nH]1)Nc1ccc(-c2ccc(-c3nc4ccc(F)cc4[nH]3)cc2)cc1	99
CN1CCN(CCCN(C(=O)Nc2cc(C(F)(F)F)cc(C(F)(F)F)c2)c2ccccc2Cc2ccccc2)CC1	89

Given the compound `CCCN(CCC)C(=O)c1cc(-c2cccc(C)c2)nc2ccccc12` , what is its reported growth inhibition?
86

So what's the measured growth inhibition for this one? `Cc1cccnc1CNc1nccc2c(C)c(C)[nH]c12`
100

Which growth inhibition is listed for `CCOc1cc(C)ccc1N1CCN(CCN2CCC(NC(=O)c3ccc(-c4ccc(C#N)cc4)cc3)CC2)CC1` ?
84

Bench note: what growth inhibition did `CC1(C)Cc2c([nH]c3ccccc23)C(CCCCCCCCC2=NC(C)(C)Cc3c2[nH]c2ccccc32)=N1` show?
99

Requested field: growth inhibition. Item: `CCOc1ccc2c(NN=Cc3cccc(F)c3)cc(C)nc2c1`
100

For the compound shown here, CNC(=O)c1cnc(Nc2ccc(OCC(O)CN(C)C)cc2)nc1Nc1cccc(Br)c1 (centres undefined) , give the reported growth inhibition.
102

Request the reported growth inhibition associated with `CN1CCN(CCCN(Cc2cccc(-c3cccc(CNC4CCCC4)c3)c2)C(=O)/C=C/c2ccccc2)CC1`
101

Entry under review: `O=C(Nc1cc(F)cc(-c2cccnc2)c1)c1ccc2c(=O)n(Cc3ccccc3)cnc2c1` . Reported growth inhibition?
98

Requested field: growth inhibition. Item: `C[C@@H](Nc1nc(NCc2ccccc2)c2sccc2n1)c1ccccc1`
91

Recorded growth inhibition of `COc1cc(C)nc2ccc(NC(=O)c3ccc(C(=O)Nc4ccc5nc(C)cc(OC)c5c4)cc3)cc12` , please.
96

Given `c1ccc(CNCc2ccc(-c3cccc(-c4nc5ccccc5[nH]4)c3)cc2)cc1` , state its recorded growth inhibition.
101

Find the recorded growth inhibition belonging to `COc1ccc(CNCc2cccc(-c3ccc(-c4nc5ccccc5[nH]4)s3)c2)cc1` and report it.
90

// returns reported growth inhibition for input `FC(F)(F)c1ccc(CSc2ccc3nnc(-c4ccccn4)n3n2)cc1`
95

Entry Fc1ccc(C(OCC2CCCN(Cc3cccc4cccnc34)C2)c2ccc(F)cc2)cc1 (centres undefined) has what growth inhibition?
98

Recorded values, source PubChem BioAssay.
